- EXPERIMENT SUMMARY: Cytotoxicity against human L132 cells assessed as inhibition of cell growth
- Assay type: toxicity, cell-based
TEST READOUT: CC50
# number then unit; no other words

Request: Quick one: CC50 for C[C@@H]1[C@H](O)[C@@H](C)/C=C/C=C/C=C/C=C/C=C/C=C/C=C/[C@H](O[C@@H]2O[C@H](C)[C@@H](O)[C@H](N)[C@@H]2O)C[C@@H]2O[C@](O)(C[C@@H](O)C[C@@H](O)[C@H](O)CC[C@@H](O)C[C@@H](O)CC(=O)O[C@H]1C)C[C@H](O)[C@H]2C(=O)O ?
Response: 5.4 µM
